These data points were gathered from paper PMC5733478.

Molecular target: human A3AR (Homo sapiens)
Construct: expressed in transfected cells
Sequence (P0DMS8 whole entry): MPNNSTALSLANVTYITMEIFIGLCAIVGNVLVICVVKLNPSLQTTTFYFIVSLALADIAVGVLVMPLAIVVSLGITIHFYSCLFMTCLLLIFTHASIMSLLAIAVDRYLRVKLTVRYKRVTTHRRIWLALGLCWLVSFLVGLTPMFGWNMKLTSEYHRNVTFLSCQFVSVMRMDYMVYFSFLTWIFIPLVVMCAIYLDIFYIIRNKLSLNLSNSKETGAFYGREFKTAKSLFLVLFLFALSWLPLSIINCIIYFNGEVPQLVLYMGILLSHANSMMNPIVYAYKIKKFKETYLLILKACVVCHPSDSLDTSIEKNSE
Experiment: LOPAC library primary screen: single concentration (10 μM) inhibition of 25 nM CA200645 binding, PHERAstar FS
Conditions: compounds tested at 10 µM; % of control wells (1% DMSO and 25 nM CA200645); whole live cells expressing the A3AR; mean ± SD, three experiments in duplicate
Counter-ions that a name gives are not always drawn.
MEASURE: % 25 nM CA200645 binding (%)

# COMPOUND, RESULT
measured = [
    ("[H]/N=C(/NC)NCCC[C@H](N)C(=O)O [NG-Monomethyl-L-arginine acetate]", 112.2),
    ("C[C@]12CCC(=O)C=C1CC[C@@H]1[C@@H]2CC[C@@]2(C)[C@H]1CC[C@]2(O)C(=O)CO [Cortexolone]", 110.6),
    ("NCCS(=O)(=O)O", 106.8),
    ("CNS(=O)(=O)CCc1ccc2[nH]cc(C3CCN(C)CC3)c2c1 [Naratriptan hydrochloride]", 102.9),
    ("CC(C)C[C@H](NP(=O)([O-])O[C@H]1O[C@H](C)[C@@H](O)[C@H](O)[C@@H]1O)C(=O)N[C@@H](Cc1c[nH]c2ccccc12)C(=O)[O-].[Na+].[Na+] [Phosphoramidon disodium]", 101.2),
    ("C[C@@H]1C(=O)NC2=Nc3cccc(Cl)c3CN21", 93.4),
    ("CCNC(=O)N1CCN(CCCC(c2ccc(F)cc2)c2ccc(F)cc2)CC1 [Amperozide hydrochloride]", 92.9),
    ("Nc1ccc(S(=O)(=O)Nc2ccnn2-c2ccccc2)cc1", 89.1),
    ("CSC(N)=NCCC[C@H](N)C(=O)O [S-Methyl-L-thiocitrulline acetate]", 102.0),
    ("CC[C@H](C)C(=O)O[C@H]1CCC=C2C=C[C@H](C)[C@H](CC[C@@H]3C[C@@H](O)CC(=O)O3)[C@H]21", 107.1),
    ("C#CCN(C)CCCOc1ccc(Cl)cc1Cl [Clorgyline hydrochloride]", 96.0),
    ("N[C@H](CCCP(=O)(O)O)C(=O)O [D(-)-2-Amino-5-phosphonopentanoic acid]", 109.4),
    ("CCCOc1ccccc1-c1nc2nn[nH]c2c(=O)[nH]1", 109.4),
    ("COc1cccc2c1[C@@H]1CN(CCCCn3c(=O)[nH]c4c(sc5ncc(-c6ccccc6)nc54)c3=O)C[C@@H]1CO2 [Fiduxosin hydrochloride]", 92.6),
    ("Oc1cc2c(cc1O)CN(C(=S)NCCc1ccc(Cl)cc1)CCC2 [Capsazepine]", 90.6),
    ("NC(N)=NCCCCN=C(N)N [Arcaine sulfate]", 96.1),
    ("CCCCN(CCCC)CC(O)c1cc(Cl)cc2c1-c1ccc(Cl)cc1/C2=C/c1ccc(Cl)cc1 (centres unmarked)", 94.4),
    ("O=C1NCN(c2ccccc2)C12CCN(CC1COc3ccccc3O1)CC2 (centres unmarked)", 112.7),
    ("c1ccc(C2CC2)c(OCC2=NCCN2)c1 [Cirazoline hydrochloride]", 105.5),
    ("c1ccc2c(c1)OCC(C1=NCCN1)O2 (centres unmarked) [Idazoxan hydrochloride]", 112.7),
    ("O=C1CC[C@@]2(O)[C@H]3Cc4ccc(O)c5c4[C@@]2(CCN3CC2CC2)[C@H]1O5 [Naltrexone hydrochloride]", 102.6),
    ("CC1(C)CCC(NC(=O)[C@@H](N)CCC(=O)O)CC1", 109.1),
    ("NC(CCCP(=O)(O)O)C(=O)O (racemic) [(±)-2-Amino-5-phosphonopentanoic acid]", 90.8),
    ("O=C(O)c1ccccc1Nc1cccc(OCc2ccc3ccccc3n2)c1", 103.1),
    ("C[N+]1(C)[C@@H]2CC[C@H]1C[C@@H](OC(=O)C(CO)c1ccccc1)C2 (some centres unmarked) [Atropine methyl bromide]", 102.2),
    ("CCC(=O)c1ccc2c(c1)N(CCCN(C)C)c1ccccc1S2 [Propionylpromazine hydrochloride]", 101.0),
    ("CCC1(C2=NCCN2)Cc2ccccc2O1 (centres unmarked) [Efaroxan hydrochloride]", 95.2),
    ("O=C1NC(=O)[C@@]2(CCOc3ccc(F)cc32)N1", 96.4),
    ("Nc1ncnc2c1ncn2[C@@H]1O[C@H](CO)[C@@H](O)[C@H]1O", 92.3),
    ("O=C1N(c2ccccc2)c2ccccc2C1(Cc1ccncc1)Cc1ccncc1", 105.3),
    ("C[N+]1(C)[C@@H]2CC[C@H]1C[C@@H](OC(=O)C(CO)c1ccccc1)C2 (some centres unmarked) [Atropine methyl nitrate]", 90.8),
    ("NC(=O)c1cc(N2CC2)c([N+](=O)[O-])cc1[N+](=O)[O-]", 93.7),
    ("N#CC(C#N)=C(N)/C(C#N)=C/c1cc(O)c(O)c(O)c1", 94.9),
    ("CSc1ccc2c(c1)C(N1CCN(C)CC1)Cc1ccccc1S2 (centres unmarked) [Methiothepin mesylate]", 112.2),
    ("CCCCCCCCCCCCCCSCC(=O)O", 101.3),
]
